Below: a set of entries, each annotated with reported inhibition at 1 µM.
target: Pim-3 (Homo sapiens (Human), UniProt Q86V86); test: ADP-Glo Kinase Assay, Pim-3; type: biochemical; settings: 1 μM compound; read-out: Pim-3 % INH (1 μM)

[[record]]
molecule = "CC(C)Cn1c(N2CCCC(N)C2)nc2c([N+](=O)[O-])c(Br)c(Br)cc21 (stereo not drawn)"
result = "> 95%"


I have this molecule here, CCn1c(NC2CCCNCC2)nc2c([N+](=O)[O-])c(Br)c(Br)cc21 (stereo not drawn) , and I need its recorded inhibition at 1 µM. > 95%

Please give the result for CCCn1c(N2CCCC(N)C2)nc2c([N+](=O)[O-])c(Br)c(Br)cc21 (stereo not drawn) too. > 95%
